# System: PC-3 prostate
# procedure_text: NCI-60 one-dose screen, 48 h (100 = growth as untreated, 0 = no growth, -100 = all killed)
# protocol_conditions: 10 µM unless noted
This is part of a sample that, as a whole, favours compounds with a hit. Of some 83,000 tested, about 20% had one in any assay.

{"columns": ["compound", "assay_system", "growth [%]"],
 "data": [
  ["CSc1nc2ncncc2[nH]1", "PC-3 prostate", 106],
  ["COc1cc(-c2nc(C(=O)Nc3ccc(C)cc3)nn2-c2ccc(F)c(F)c2)cc(OC)c1OC", "PC-3 prostate", 96.7],
  ["C[C@@H](NC(=O)c1ncnc(N)c1Cl)c1ncc(C(=O)Nc2cc(C(F)(F)F)c(Cl)cn2)s1", "PC-3 prostate", 93.7],
  ["C=C1C(=O)O[C@H]2[C@H]1CC/C(C=Nc1c(N)cc(C(F)(F)F)cc1C(F)(F)F)=C\\CC[C@@]1(C)O[C@@H]21", "PC-3 prostate", -12.8],
  ["COc1cc(Nc2ncc(F)c(Nc3ccc4c(n3)N(COP(=O)(O)O)C(=O)C(C)(C)O4)n2)cc(OC)c1OC", "PC-3 prostate", 33.5],
  ["Cc1cc(C(=O)Nc2cc(Oc3ccc4nc(NC(=O)C5CC5)cn4n3)ccc2C)n(C)n1", "PC-3 prostate", 49.8],
  ["COC(=O)[C@]12CC[C@@H](C)[C@H](C)[C@@H]1C1=CC[C@@H]3[C@@]4(C)C(c5cnco5)=C[C@@](C)(CO)C4=CC[C@@]3(C)[C@]1(C)CC2", "PC-3 prostate", 12.6],
  ["O=C(Nc1ccc(C2=NCCCN2)cc1)c1ccc(C(=O)Nc2ccc(C3=NCCCN3)cc2)nc1", "PC-3 prostate", 106],
  ["COc1ccc2c(CCC(c3ccccc3)c3ccccc3)c3[n+](cc2c1OC)CCc1cc2c(cc1-3)OCO2", "PC-3 prostate", -39.8],
  ["Cc1cc(N(CCNc2ccnc3cc(Cl)ccc23)Cc2ccc3c(c2)OCO3)nc(N2CCN(C)CC2)n1", "PC-3 prostate", 48.2],
  ["CS(=O)(=O)CCNCc1ccc(-c2ccc3ncnc(Nc4ccc(OCc5cccc(F)c5)c(Cl)c4)c3c2)o1", "PC-3 prostate", -20.6],
  ["O=c1[nH]ccc2c(S(=O)(=O)N3CCCNCC3)cccc12", "PC-3 prostate", 86.9],
  ["Cc1cc(O)cc(-c2c(-c3ccnc(-c4cccnc4)c3)cnn2C)c1", "PC-3 prostate", 47.8],
  ["COc1cc2ncnc(Oc3cccc(NC(=O)Nc4cc(C(C)(C)C(F)(F)F)on4)c3)c2cc1OC", "PC-3 prostate", 35.1],
  ["CN1CCN(c2ccc(OC(F)(F)F)c(Nc3ncc4c(n3)-c3c(c(C(N)=O)nn3CCO)CC4)c2)CC1", "PC-3 prostate", 36.8],
  ["C/C(=C(/c1ccc(Cl)cc1)c1ccc(OCCN2CCCCCC2)cc1)c1ccccc1", "PC-3 prostate", 69.3],
  ["Cc1nc(N)sc1-c1ccnc(Nc2ccc(N3CCOCC3)cc2)n1", "PC-3 prostate", 38.3],
  ["CC(N)C(Cc1ccc(Cl)cc1)c1ccc(Cl)cc1 (centres undefined)", "PC-3 prostate", 37.5],
  ["CO[C@@H](C)Cn1c(=O)n(C)c2cnc3ccc(-c4cncc(C(C)(C)O)c4)cc3c21", "PC-3 prostate", 7.66]
]}

src = PubChem BioAssay (NCI)
